test: gradient 5% acetonitrile 3 min, to 50% in 2 min, to 85% in 15 min, held 3 min, 100 µL/min; settings: column: Zorbax Extend-C18 2.1 x 50 mm; eluents: water / acetonitrile, 0.1% formic acid
measured-parameter: RP-LC retention time (s)

[
  {
    "compound": "Cc1nnc(-c2cn(CC(=O)NCc3cccc(Br)c3)c3ccccc23)o1",
    "unit-text": "s",
    "RP-LC retention time": 838
  },
  {
    "compound": "O=C(NCCOCCOCCNC(=O)Nc1ccccc1)Nc1ccccc1",
    "unit-text": "s",
    "RP-LC retention time": 679
  },
  {
    "compound": "O=C(CN1CCN(Cc2ccccc2F)C1=O)N1CCN(c2ccccc2F)CC1",
    "unit-text": "s",
    "RP-LC retention time": 857
  }
]

(P) COc1ccc(N2CC(c3nc(-c4ccccn4)no3)CC2=O)cc1Cl (stereo not given)
(Q) Cc1ccc(-c2nc(NC(=O)CCc3ccccc3)sc2C)cc1
Returns: the label, P or Q , whose recorded RP-LC retention time is the lower number. Answer = label.
P

(1) CCOCC(=O)N1CC(F)(F)C[C@H]1c1nc(C(=O)NC)no1
(2) CCCCN1C(=O)C(C)(C(=O)Nc2ccc(C)cc2C)Oc2cccnc21 (stereo not given)
Returns: the label, 1 or 2 , whose recorded RP-LC retention time is the lower number. Answer = label.
1
(1: 626 s, 2: 1090 s)
